statedConditions: pH 2.7
Marks after values point to notes of the source that are not given here.
Recorded LogP by entry

molecule	reportedMeasurement
CCOC(C)(C)C(O)(Cc1ccncc1Cl)Cn1cncn1 (centres unmarked)	1.90
Cc1cnc(CC(O)(Cn2cncn2)C(C)(C)C)c(Cl)n1 (centres unmarked)	2.21^[a]
CC(C)(C)C(O)(Cc1cc(Cl)cc(Cl)n1)Cn1cncn1 (centres unmarked)	2.86^[a]
CC(C)(C)C(O)(Cc1c(Cl)cncc1Cl)Cn1cncn1 (centres unmarked)	2.34^[a]

Shift focus to the following entry.
Supply reported LogP belonging to this molecule: CC(C)(C)C(O)(Cc1cnccn1)Cn1cncn1 (centres unmarked) 1.39^[a]

---

Tested on: Uromyces appendiculatus
measurementProtocol: In vivo preventive test on Uromyces appendiculatus (bean rust)
statedConditions: 500 ppm of active ingredient; bean plants, preventive spray; evaluated 11 days after inoculation
Recorded Eff. % by entry
Remember to put the unit after the number in your answer.

Supply reported Eff. % belonging to this compound: CCOC(C)(C)C(O)(Cc1ccncc1Cl)Cn1cncn1 (stereo not drawn) 99%

Supply reported Eff. % belonging to this compound: CC(C)(C)C(O)(Cc1cc(F)ncc1Cl)Cn1cncn1 (stereo not drawn) 100%

Supply reported Eff. % belonging to this compound: CC(C)(C)C(O)(Cc1cccnc1Cl)Cn1cncn1 (stereo not drawn) 100%

---

statedConditions: pH 2.7
Marks after values point to notes of the source that are not given here.
endpointName: LogP

Use these answered entries as a reference point.
compound	LogP
CC(C)(C)C(O)(Cc1ccc(Cl)c(Cl)n1)Cn1cncn1 (centres unmarked)	2.78^[a]
COC(C)(C)C(O)(Cc1ccncc1Cl)Cn1cncn1 (centres unmarked)	1.48^[a]
CC(C)(C)C(O)(Cc1cc(Cl)ccn1)Cn1cncn1 (centres unmarked)	1.87^[a]
CC(C)(C)C(O)(Cc1cncc(Cl)n1)Cn1cncn1 (centres unmarked)	1.89^[a]

Supply reported LogP belonging to this compound: Cc1cccc(CC(O)(Cn2cncn2)C(C)(C)C)n1 (centres unmarked) 0.63^[a]

---

statedConditions: method [a]: LC-MS at pH 2.7, 0.1% formic acid in water / acetonitrile gradient
endpointName: LogP

Use these answered entries as a reference point.
compound	LogP
CCCC(C)(C)C1(Cc2ccncc2Cl)CO1 (stereo not shown)	2.03^[a]
CC(C)(C)C1(Cc2cc(F)ncc2Cl)CO1 (stereo not shown)	3.65^[a]
CC(C)(C)C1(Cc2ccnc(Cl)c2F)CO1 (stereo not shown)	3.37^[a]
CC(C)(C)C1(Cc2ncc(Cl)cc2Cl)CO1 (stereo not shown)	4.06^[a]
CC(C)(C)C(=O)Cc1ccc(Cl)nc1	2.47^[a]

Supply reported LogP belonging to this compound: CC(C)(C)C1(Cc2cc(Cl)ncc2F)CO1 (stereo not shown) 3.42^[a]

---

statedConditions: pH 2.7
Marks after values point to notes of the source that are not given here.
Recorded LogP by entry

Use these answered entries as a reference point.
molecule	LogP
CC(C)(C)C(O)(Cc1nc(Cl)ccc1Cl)Cn1cncn1 (centres unmarked)	2.82^[a]
CC(C)(C)C(O)(Cc1cccnc1Cl)Cn1cncn1 (centres unmarked)	1.94
CC(C)(C)C(O)(Cc1ccnc2ccccc12)Cn1cncn1 (centres unmarked)	1.17^[a]
CC(C)(C)C(O)(Cc1ccncc1F)Cn1cncn1 (centres unmarked)	1.41^[a]
Cc1ncc(CC(O)(Cn2cncn2)C(C)(C)C)nc1Cl (centres unmarked)	2.10^[a]
CC(C)(C)C(O)(Cc1cc(Cl)nc(Cl)c1)Cn1cncn1 (centres unmarked)	2.64^[a]

Supply reported LogP belonging to this molecule: CCC(C)(C)C(O)(Cc1ccnc(Cl)c1)Cn1cncn1 (centres unmarked) 2.27^[a]

Supply reported LogP belonging to this molecule: CC(C)(C)C(O)(Cc1ccc(Cl)nc1)Cn1cncn1 (centres unmarked) 1.98^[b]; 1.98^[a]

Supply reported LogP belonging to this molecule: CCOC(=O)OC(Cc1cccnc1Cl)(Cn1cncn1)C(C)(C)C (centres unmarked) 2.67

Supply reported LogP belonging to this molecule: CCC(C)(C)C(O)(Cc1ccncc1Cl)Cn1cncn1 (centres unmarked) 2.13^[a]

Supply reported LogP belonging to this molecule: OC(Cc1ccncc1Cl)(CC1CC1)Cn1cncn1 (centres unmarked) 1.43^[a]

---

statedConditions: pH 7.8
endpointName: LogP
// no unit, no text: just the number

Use these answered entries as a reference point.
compound	LogP
CCOC(=O)OC(Cc1cccnc1Cl)(Cn1cncn1)C(C)(C)C (stereo not shown) [Example I-24]	2.56
CC(C)(C)C(O)(Cc1cccnc1Cl)Cn1cncn1 (stereo not shown) [Example I-3]	1.90

Supply reported LogP belonging to this compound: CCOC(C)(C)C(O)(Cc1ccncc1Cl)Cn1cncn1 (stereo not shown) [Example I-32] 2.04

---

Recorded Eff. % by entry
System: Pyrenophora teres
measurementProtocol: In vivo preventive test on Pyrenophora teres (net blotch on barley)
statedConditions: 500 ppm of active ingredient; barley plants, preventive spray; evaluated 14 days after inoculation
Entry rule: numbers only, all in %.

Use these answered entries as a reference point.
compound	units	Eff. %
COC(C)(C)C(O)(Cc1ccncc1Cl)Cn1cncn1 (centres unmarked)	%	71
CC(C)(C)C(O)(Cc1cc(F)ncc1Cl)Cn1cncn1 (centres unmarked)	%	93

Give measured Eff. % for CC(C)(C)C(O)(Cc1ccnc(Cl)c1F)Cn1cncn1 (centres unmarked) (Pyrenophora teres). 97

Give measured Eff. % for CCOC(=O)OC(Cc1cccnc1Cl)(Cn1cncn1)C(C)(C)C (centres unmarked) (Pyrenophora teres). 75

Give measured Eff. % for OC(Cc1ccncc1Cl)(CC1CC1)Cn1cncn1 (centres unmarked) (Pyrenophora teres). 71

---

Tested on: Puccinia recondita
measurementProtocol: In vivo preventive test on Puccinia recondita (brown rust on wheat)
statedConditions: 100 ppm of active ingredient; wheat plants, preventive spray; evaluated 11 days after inoculation
endpointName: Eff. % (%)
Entry rule: numbers only, all in %.

Use these answered entries as a reference point.
molecule	reportedMeasurement
CC(C)(C)C(O)(Cc1ccncc1Cl)Cn1cncn1 (stereo not shown)	88
CCC(C)(C)C(O)(Cc1ccncc1Cl)Cn1cncn1 (stereo not shown)	90
CC(C)(C)C(O)(Cc1ccncc1F)Cn1cncn1 (stereo not shown)	88

Shift focus to the following entry.
Supply reported Eff. % belonging to this molecule: CCC(C)(C)C(O)(Cc1ccncc1F)Cn1cncn1 (stereo not shown) 81

---

System: Uromyces appendiculatus
measurementProtocol: In vivo preventive test on Uromyces appendiculatus (bean rust)
statedConditions: 500 ppm of active ingredient; bean plants, preventive spray; evaluated 11 days after inoculation
Recorded Eff. % by entry
Entry rule: numbers only, all in %.

Use these answered entries as a reference point.
molecule	targetSystem	Eff. % [%]
CCOC(=O)OC(Cc1cccnc1Cl)(Cn1cncn1)C(C)(C)C (stereo not drawn)	Uromyces appendiculatus	97
COC(C)(C)C(O)(Cc1ccncc1Cl)Cn1cncn1 (stereo not drawn)	Uromyces appendiculatus	100
CC(C)CCC(O)(Cc1ccncc1Cl)Cn1cncn1 (stereo not drawn)	Uromyces appendiculatus	96

Supply reported Eff. % belonging to this molecule: CC(C)(C)C(O)(Cc1ccnc(Cl)c1F)Cn1cncn1 (stereo not drawn) 100

Supply reported Eff. % belonging to this molecule: OC(Cc1ccncc1Cl)(CC1CC1)Cn1cncn1 (stereo not drawn) 100

Supply reported Eff. % belonging to this molecule: CC(C)(C)C(O)(Cc1ccc(Cl)nc1)Cn1cncn1 (stereo not drawn) 77

---

statedConditions: method [a]: LC-MS at pH 2.7, 0.1% formic acid in water / acetonitrile gradient
endpointName: LogP

molecule	LogP
CC(C)(C)C1(Cc2ccnc(Cl)c2)CO1 (stereo not shown) [XII-12]	3.06^[a]
CCC(C)(C)C(O)(Cc1ccncc1F)Cn1cncn1 (stereo not shown) [Example I-7]	1.73^[a]
CC(C)C(C)(C)C(=O)Cc1ccncc1Cl [Example V-6]	3.00^[a]

Supply reported LogP belonging to this molecule: CC(C)(C)C1(Cc2c(Cl)cncc2Cl)CO1 (stereo not shown) [XII-21] 3.89^[a]

Supply reported LogP belonging to this molecule: CCC(C)(C)C1(Cc2cc(F)ncc2Cl)CO1 (stereo not shown) [XII-19] 4.17^[a]

Supply reported LogP belonging to this molecule: CC(C)C(C)(C)C1(Cc2ccncc2Cl)CO1 (stereo not shown) [XII-16] 3.75^[a]

Supply reported LogP belonging to this molecule: CCC(C)(C)C1(Cc2c(Cl)cncc2Cl)CO1 (stereo not shown) [XII-22] 4.41^[a]

Supply reported LogP belonging to this molecule: CC(C)(C)C(=O)Cc1ccncc1 [Example V-8] 0.35

Supply reported LogP belonging to this molecule: CCC(C)(C)C1(Cc2ccncc2F)CO1 (stereo not shown) [XII-8] 2.76^[a]

Supply reported LogP belonging to this molecule: CCC(C)(C)C1(Cc2ccncc2Cl)CO1 (stereo not shown) [XII-17] 3.33^[a]

Supply reported LogP belonging to this molecule: CC(C)C(C)(C)C1(Cc2cc(Cl)ncc2F)CO1 (stereo not shown) [XII-13] 4.34^[a]

Supply reported LogP belonging to this molecule: CCC(C)(C)C1(Cc2ccnc(Cl)c2)CO1 (stereo not shown) [XII-10] 3.51^[a]

Supply reported LogP belonging to this molecule: CC(C)(C)C(O)(Cc1ccc2ccccc2n1)Cn1cncn1 (stereo not shown) [Example I-8] 1.51^[a]

Supply reported LogP belonging to this molecule: CC(C)(C)C1(Cc2ccncc2F)CO1 (stereo not shown) [XII-7] 2.31^[a]

Supply reported LogP belonging to this molecule: CC(C)(C)C(=O)Cc1cnc2ccccc2c1 [Example V-2] 1.60^[a]

Supply reported LogP belonging to this molecule: CC(C)(C)C(=O)Cc1cccnc1 [Example V-7] 0.41

Supply reported LogP belonging to this molecule: CC(C)(C)C(=O)Cc1ncc(Cl)cc1Cl [Example V-1] 3.33^[a]

Supply reported LogP belonging to this molecule: CC(C)(C)C1(Cc2cnc3ccccc3c2)CO1 (stereo not shown) [XII-2] 1.86^[a]

Supply reported LogP belonging to this molecule: CC(C)C(C)(C)C1(Cc2ccnc(Cl)c2)CO1 (stereo not shown) [XII-11] 3.94^[a]

Supply reported LogP belonging to this molecule: CCC(C)(CC)C(=O)Cc1ccncc1Cl [Example V-5] 3.04^[a]

Supply reported LogP belonging to this molecule: CC(C)C(C)(C)C1(Cc2ccncc2F)CO1 (stereo not shown) [XII-9] 3.19^[a]

Supply reported LogP belonging to this molecule: CCC(C)(C)C1(Cc2cc(Cl)ncc2F)CO1 (stereo not shown) [XII-14] 3.89^[a]
